- MEASUREMENT TARGET: Nitric oxide synthase, inducible (Mus musculus, UniProt P29477)
- Sequence (P29477 whole entry): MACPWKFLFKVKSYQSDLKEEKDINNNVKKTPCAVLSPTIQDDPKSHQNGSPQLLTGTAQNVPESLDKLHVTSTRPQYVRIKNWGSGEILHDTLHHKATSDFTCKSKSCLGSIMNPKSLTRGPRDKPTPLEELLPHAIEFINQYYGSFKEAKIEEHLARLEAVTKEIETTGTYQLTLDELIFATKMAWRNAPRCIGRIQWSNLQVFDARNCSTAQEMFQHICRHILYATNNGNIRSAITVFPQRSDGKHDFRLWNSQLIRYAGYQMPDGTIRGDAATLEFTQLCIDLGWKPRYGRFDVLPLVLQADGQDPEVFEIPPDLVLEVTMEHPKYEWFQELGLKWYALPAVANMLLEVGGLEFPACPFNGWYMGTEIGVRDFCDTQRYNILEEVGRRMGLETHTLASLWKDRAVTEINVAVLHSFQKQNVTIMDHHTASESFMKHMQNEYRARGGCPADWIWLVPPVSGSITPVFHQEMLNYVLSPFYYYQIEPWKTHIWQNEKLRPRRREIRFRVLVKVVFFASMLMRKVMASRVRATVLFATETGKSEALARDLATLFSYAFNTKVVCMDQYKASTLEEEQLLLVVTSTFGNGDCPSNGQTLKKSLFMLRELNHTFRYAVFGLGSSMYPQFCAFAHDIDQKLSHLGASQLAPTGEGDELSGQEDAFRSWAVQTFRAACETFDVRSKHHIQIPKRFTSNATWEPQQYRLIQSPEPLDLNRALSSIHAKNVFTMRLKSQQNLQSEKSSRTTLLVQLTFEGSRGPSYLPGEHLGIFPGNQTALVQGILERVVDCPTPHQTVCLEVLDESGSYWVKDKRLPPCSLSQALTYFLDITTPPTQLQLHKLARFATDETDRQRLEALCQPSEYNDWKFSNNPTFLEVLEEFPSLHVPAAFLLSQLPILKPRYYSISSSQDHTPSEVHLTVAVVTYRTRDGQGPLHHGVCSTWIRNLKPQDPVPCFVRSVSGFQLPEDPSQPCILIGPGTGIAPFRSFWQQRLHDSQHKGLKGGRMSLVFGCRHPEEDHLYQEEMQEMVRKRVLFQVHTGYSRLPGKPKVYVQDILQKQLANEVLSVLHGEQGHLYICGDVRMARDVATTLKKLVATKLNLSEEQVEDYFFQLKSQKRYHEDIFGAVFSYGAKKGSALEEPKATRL
- PROTOCOL TEXT: Inhibition of mouse recombinant iNOS
READOUT: pIC50
Bear in mind: pIC50 is minus log10 of a mol/L concentration; give just that figure.

Result for Nc1nccn1CCC[C@H](N)C(=O)O , tested on Nitric oxide synthase, inducible (Mus musculus, UniProt P29477), pIC50: 3.32
